Reference for the values: PubChem BioAssay (NCI)

Reported TGI is given for each of the following compounds.
System: UACC-62 melanoma
PROTOCOL_DESCRIPTION: NCI tumour cell line growth inhibition, 48 h

// below: answered compounds
Looking for the measured TGI of "CCCCCCC(=O)OC[n+]1cccc(-c2c(COC(=O)NC(C)C)c(COC(=O)NC(C)C)c3n2CCC3)c1" , can you help?
72.9 µM

Looking for the measured TGI of "O=C1c2ccccc2C(=O)c2c(O)c(NCCNCCO)cc(O)c21" , can you help?
23.8 µM

Looking for the measured TGI of "NC(=O)N/N=C(\CCC(=O)N(Cc1ccccc1)Cc1ccccc1)CC(=O)c1ccc(F)cc1" , can you help?
> 100 µM

Looking for the measured TGI of "Clc1ccc(/C=C/c2nc(Cl)c(-c3ccc(Cl)cc3)c(Cl)n2)cc1" , can you help?
> 100 µM

Looking for the measured TGI of N#CC(C(=O)CCC(=O)Nc1ccc(Cl)c(Cl)c1)c1ccc(Cl)cc1 (stereo unspecified) , can you help?
> 100 µM

Looking for the measured TGI of "c1ccc(CSC(SCc2ccccc2)c2ccc3c(c2)OCO3)cc1" , can you help?
> 10 µM

Looking for the measured TGI of "CCC(=O)c1c(C(F)(F)F)n([O-])c2ccccc2[n+]1=O" , can you help?
4.64 µM

Looking for the measured TGI of "COc1ccc2c(c1)C=C1CSCC3=Cc4cc(OC)ccc4OC13O2" , can you help?
> 100 µM

Further cases:
Looking for the measured TGI of "COc1ccc(OC)c(/C=N/N=C2\C(=O)Nc3c(Cl)cc(Cl)cc32)c1" , can you help?
> 100 µM

Looking for the measured TGI of "COc1cc2nncc(SCc3ccc(Cl)c(Cl)c3)c2cc1OC" , can you help?
> 100 µM

Looking for the measured TGI of "COc1cc2c(cc1OCCCCCn1c3ccccc3c3ccccc31)N=C[C@@H]1CCCN1C2=O" , can you help?
3.8 µM

Looking for the measured TGI of Cn1ncnc1C1c2n[nH]c(=O)c3cc(F)cc(c23)NC1c1ccc(F)cc1 (stereo unspecified) , can you help?
> 100 µM

Looking for the measured TGI of "CCOC(=O)c1ccc(Nc2cnc3ccc(C(F)(F)F)cc3n2)cc1" , can you help?
33.5 µM

Looking for the measured TGI of "CN(CCCN(C)CCC1CCCCC1)CCC1CCCCC1" , can you help?
2.39 µM

Looking for the measured TGI of CC(=O)C1C(=O)C(=O)N(c2ccc(Br)cc2)C1=O (stereo unspecified) , can you help?
> 100 µM

----------
Reported TGI is given for each of the following molecules.
System: SN12C renal
PROTOCOL_DESCRIPTION: NCI tumour cell line growth inhibition, 48 h

// below: answered molecules
Looking for the measured TGI of CC[C@H](C)[C@H]1NC(=O)[C@@H](NC(=O)[C@@H](CC(C)C)N(C)C(=O)C2CCCN2C(=O)[C@H](C)O)[C@@H](C)OC(=O)[C@H](Cc2ccccc2)N(C)C(=O)[C@@H]2CCCN2C(=O)[C@H](CC(C)C)NC(=O)[C@@H](C)C(=O)[C@H](C(C)C)OC(=O)C[C@@H]1O (stereo not given in full) , can you help?
> 14.5 µM

Looking for the measured TGI of "O=C1c2ccn(CCCCN(CCO)CCO)c2C(=O)c2c1c(O)c1ccccc1c2O" , can you help?
25 µM

Looking for the measured TGI of "CN(C)N=Nc1nn(C(=O)Nc2ccc(Cc3ccccc3)cc2)c2ccccc12" , can you help?
> 100 µM

Further cases:
Looking for the measured TGI of "O=C1c2ccccc2C(=O)c2c(O)c(NCCNCCO)cc(O)c21" , can you help?
14.9 µM

Looking for the measured TGI of "CCCCCCC(=O)OC[n+]1cccc(-c2c(COC(=O)NC(C)C)c(COC(=O)NC(C)C)c3n2CCC3)c1" , can you help?
> 100 µM

Looking for the measured TGI of "CN(C)C(=S)SCC(N)=O" , can you help?
> 100 µM

Looking for the measured TGI of "O=C1Nc2ccc(Br)cc2/C1=C/C(=O)c1ccccc1" , can you help?
10.5 µM

Looking for the measured TGI of C=CCC1C2CCC(O[Si](C(C)C)(C(C)C)C(C)C)(C(C(=O)OC)C2)C1O (stereo not given) , can you help?
> 100 µM

Looking for the measured TGI of CC(C)c1cccc(C(C)C)c1NC(=O)C(=O)C1SC(=S)NC1=O (stereo not given) , can you help?
> 100 µM

Looking for the measured TGI of "Clc1ccc(/C=C/c2nc(Cl)c(-c3ccc(Cl)cc3)c(Cl)n2)cc1" , can you help?
> 100 µM

Looking for the measured TGI of "CN(CCO)/N=N/c1nc[nH]c1C(N)=O" , can you help?
> 100 µM

Looking for the measured TGI of "Cc1nc(Nc2nc3ccccc3[nH]2)[nH]c(=O)c1CCO" , can you help?
> 100 µM

----------
System: COLO 205 colon
PROTOCOL_DESCRIPTION: NCI tumour cell line growth inhibition, 48 h
READOUT_LABEL: GI50

Looking for the measured GI50 of CCCCN(CCCC)CCC(O)c1cc2ccc(C(F)(F)F)cc2c2cc(C(F)(F)F)ccc12 (centres undefined) , can you help?
1620 nM

Looking for the measured GI50 of CCN(CC)CCC(=O)O[C@H]1CC[C@H](CC(C)[C@H]2CC(=O)C(C)C=C(C)[C@H](OC(=O)CCN(CC)CC)C(OC)C(=O)[C@@H](C)CC(C)/C=C/C=C/C=C(C)C(OC)CC3CC[C@H](C)[C@](O)(O3)C(=O)C(=O)N3CCCCC3C(=O)O2)CC1OC (some centres undefined) , can you help?
1040 nM

Looking for the measured GI50 of NCCSC(C[N+](=O)[O-])c1ccccc1Cl (centres undefined) , can you help?
2140 nM

Shift focus to the following entry.
Looking for the measured GI50 of NS(=O)(=O)c1ccc(N2N=C(c3cccs3)CC2c2ccccc2O)cc1 (centres undefined) , can you help?
577 nM

----------
System: SF-295 CNS
PROTOCOL_DESCRIPTION: NCI tumour cell line growth inhibition, 48 h
Reported TGI is given for each of the following compounds.
Value expressed in µM; do not type the unit.

Looking for the measured TGI of COC1C(O)C(C)OC(O[C@@H]2C[C@H]3CC[C@@H]4[C@H](CC[C@]5(C)[C@@H](C6=CC(=O)OC6)CC[C@]45O)[C@@]3(C)[C@H](O)C2)C1O (stereo partly drawn) , can you help?
0.321

Further cases:
Looking for the measured TGI of "COc1ccc2c(c1OC)C(=O)O[C@@H]2[C@H]1c2c(c(Br)c3c(c2OC)OCO3)CCN1C" , can you help?
47.4

Looking for the measured TGI of "O=C1c2ccn(CCCCN(CCO)CCO)c2C(=O)c2c1c(O)c1ccccc1c2O" , can you help?
42

Looking for the measured TGI of "Cc1ccc(S(=O)(=O)Nc2cc(Sc3ccccc3)c(O)c3ccccc23)cc1" , can you help?
26.8

----------
Tested on: SK-MEL-28 melanoma
PROTOCOL_DESCRIPTION: NCI tumour cell line growth inhibition, 48 h
READOUT_LABEL: TGI (µM)
Value expressed in µM; do not type the unit.

// below: answered compounds
Please tell me: TGI of COC1C(O)C(C)OC(O[C@@H]2C[C@H]3CC[C@@H]4[C@H](CC[C@]5(C)[C@@H](C6=CC(=O)OC6)CC[C@]45O)[C@@]3(C)[C@H](O)C2)C1O (some centres undefined) , system SK-MEL-28 melanoma?
0.819

Please tell me: TGI of NCCSC(C[N+](=O)[O-])c1ccccc1Cl (centres undefined) , system SK-MEL-28 melanoma?
4.6

Please tell me: TGI of "C=C(CC)C[C@@H]1C[C@]2(C(=O)OC)c3[nH]c4ccccc4c3CCN2C1=O" , system SK-MEL-28 melanoma?
39.9

Please tell me: TGI of CCc1nc(N)nc(N)c1C#CC(C)c1cc(-c2ccnc(C)c2)c2oc(C)nc2c1 (centres undefined) , system SK-MEL-28 melanoma?
14.3

Please tell me: TGI of CCN(CC)CCC(=O)O[C@H]1CC[C@H](CC(C)[C@H]2CC(=O)C(C)C=C(C)[C@H](OC(=O)CCN(CC)CC)C(OC)C(=O)[C@@H](C)CC(C)/C=C/C=C/C=C(C)C(OC)CC3CC[C@H](C)[C@](O)(O3)C(=O)C(=O)N3CCCCC3C(=O)O2)CC1OC (some centres undefined) , system SK-MEL-28 melanoma?
1.95

Further cases:
Please tell me: TGI of CCCCN(CCCC)CCC(O)c1cc2ccc(C(F)(F)F)cc2c2cc(C(F)(F)F)ccc12 (centres undefined) , system SK-MEL-28 melanoma?
4.23

Please tell me: TGI of CC/C=C/C(/C=C/C[C@]1(CC)C[C@H](CC)[C@H](CC(=O)O)OO1)CC (some centres undefined) , system SK-MEL-28 melanoma?
7.41

Please tell me: TGI of "S=C(Nc1cccc(C2(N3CCCCC3)CCCCC2)c1)Nc1cccc(C2(N3CCCCC3)CCCCC2)c1" , system SK-MEL-28 melanoma?
35.3

Please tell me: TGI of "O=C1/C(=C/c2ccc(Cl)cc2)Sc2scc(-c3cccc([N+](=O)[O-])c3)[n+]21" , system SK-MEL-28 melanoma?
10.2
